- measured_on: human glucagon receptor (human) (UniProt P47871)
- Sequence (P47871 26-477): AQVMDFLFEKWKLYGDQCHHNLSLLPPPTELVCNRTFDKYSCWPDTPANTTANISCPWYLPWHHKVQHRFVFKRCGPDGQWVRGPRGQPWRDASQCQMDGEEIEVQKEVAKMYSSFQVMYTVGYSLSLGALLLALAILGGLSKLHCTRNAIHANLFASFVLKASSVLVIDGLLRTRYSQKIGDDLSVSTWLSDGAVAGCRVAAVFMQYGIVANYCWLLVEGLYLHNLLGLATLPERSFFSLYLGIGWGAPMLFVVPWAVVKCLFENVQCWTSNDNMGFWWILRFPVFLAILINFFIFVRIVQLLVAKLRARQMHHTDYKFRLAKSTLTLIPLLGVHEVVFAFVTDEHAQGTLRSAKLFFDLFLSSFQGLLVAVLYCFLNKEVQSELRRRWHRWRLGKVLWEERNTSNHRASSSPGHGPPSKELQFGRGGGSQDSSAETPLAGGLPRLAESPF
- test: cell-based or functional assay
quantity_measured: cAMP Rel EC50, nM (1% HSA) (nM)
Express it in nM; write the number only.

binder: YXQGTFTSDXSXXLDKKAQXAFIEYLLEXGHSSGAPPPSGS (synthetic construct; SITE 2: note = 2-Aminoisobutyric Acid; SITE 10: note = 4-cyano-L-phenylalanine; SITE 12: note = L-ornithine; SITE 13: note = alpha-methyl-leucine; SITE 17: note = Lysine is chemically modified through conjugation of the epsilon-amino group of the Lysine side chain with (2-[2-(2-) [Example 190]
cAMP Rel EC50, nM (1% HSA) (nM): 331
//
binder: YXQGTXTSDXXIXLDXKAAXEFIEXLIEGGPSSGEPPPSGGGE (synthetic construct; SITE 2: note = 2-Aminoisobutyric Acid; SITE 6: note = alpha-methyl-2-fluoro-L-phenylalanine; SITE 10: note = 3-(4-Pyridyl)-L-alanine; SITE 11: note = alpha-methyl-L-serine; SITE 13: note = alpha-methyl-leucine; SITE 16: note = L-ornithine; SITE 17: note = Lysine is chemically mo) [Example 748]
cAMP Rel EC50, nM (1% HSA) (nM): 156
//
binder: YXQGTFTSDXSXXLDXKAQXXFIEXLIEGGPSSGAPPPSGSEE (Aib, 4Pal, Orn, Me4Pal, alpha-methyl-Tyr, lipidated Lys, amide; synthetic construct; SITE 2: note = 2-Aminoisobutyric Acid; SITE 10: note = 3-(4-Pyridyl)-L-alanine; SITE 12: note = L-ornithine; SITE 13: note = alpha-methyl-leucine; SITE 16: note = L-ornithine; SITE 17: note = Lysine is chemically modified through conjugation of the epsilon-amino group of the Lys) [Example 974]
cAMP Rel EC50, nM (1% HSA) (nM): 870
//
binder: YXQGTFTSDFSKXLDKKAQXAFIEYLLEGGESSGAPPPSGS (synthetic construct; SITE 2: note = 2-Aminoisobutyric Acid; SITE 13: note = alpha-methyl-leucine; SITE 17: note = Lysine is chemically modified through conjugation of the epsilon-amino group of the Lysine side chain with (2-[2-(2-Amino-ethoxy)-ethoxy]-acetyl)2-(gamma-Glu)-CO-(CH2 )16-CO2H; SITE 20:) [Example 147]
cAMP Rel EC50, nM (1% HSA) (nM): 877
//
binder: YXQGTXTSDYXSLLDXKAQXXFIEXLLEGGPSSGEPPPE (synthetic construct; SITE 2: note = 2-Aminoisobutyric Acid; SITE 6: note = alpha-methyl-L-phenylalanine; SITE 11: note = alpha-methyl-L-serine; SITE 16: note = L-ornithine; SITE 17: note = Lysine is chemically modified through conjugation of the epsilon-amino group of the Lysine side chain with (2-[) [Example 390]
cAMP Rel EC50, nM (1% HSA) (nM): 549

Request: Fill in the blank: the reported cAMP Rel EC50, nM (1% HSA) of YXQGTXTSDYSILLDKKAQXAFIEYLEEGGPSSGAPPPS (synthetic construct; SITE 2: note = 2-Aminoisobutyric Acid; SITE 6: note = alpha-methyl-2-fluoro-L-phenylalanine; SITE 17: note = Lysine is chemically modified through conjugation of the epsilon-amino group of the Lysine side chain with (gamma-Glu)2-CO-(CH2)16-CO2H; SITE 20: note = 2-Aminoisobutyric) [Example 406] is ____.
Result: 254

Request: YXQGTFTSDFSKXLDKKAQXAFIEYLIEXGESSGAPPPSGS (acylated; synthetic construct; SITE 2: note = 2-Aminoisobutyric Acid; SITE 13: note = alpha-methyl-leucine; SITE 17: note = Lysine is chemically modified through conjugation of the epsilon-amino group of the Lysine side chain with (2-[2-(2-Amino-ethoxy)-ethoxy]-acetyl)-(gamma-Glu)-CO-(CH2) 16-CO2H; SITE 20: n) [Example 216] , same question.
Result: 895

Request: Now give it for HXQGTXTSDYSILLDKKAQXAFIEYLEEGGPSSGAPPPS (not fully specified; synthetic construct; SITE 2: note = 2-Aminoisobutyric Acid; SITE 6: note = alpha-methyl-2-fluoro-L-phenylalanine; SITE 17: note = Lysine is chemically modified through conjugation of the epsilon-amino group of the Lysine side chain with (2-[2-(2-Amino-ethoxy)-ethoxy]-acetyl)-(gamma-Glu)-CO-(CH2) 16-) [Example 425] too.
Result: 1150
